This collection of values is drawn from a protein production outcome set (Wang et al. 2014).

test.protocol: label from the status in PepcDB records
readout.label: protein production

{"primary.sequence": "MENFLSLFDFFKSKIRYIFLIYTIFTIYMNSKNCFINYVLLIFLDVILIIYSFIFLNKKQKYPFLFIIISTIVYAFIWLFGHCDNIYYFIILDDIFEIKADFKKKLLVAIHSSAFMMVTLKNLIFKNYDLHEILSSIAYSIIIYMAILFVFIFIHKFKDERDKLKILNSNLIEYSFNEREFLLSEERNRISQELHDSIGHSLMALSMNIKYLKGIKNRSNINEELDNMDKVIKESVQTLRSTVYNLKKLDECCDLKKEVYDIIKKFNRLDIVKINFDCASDIEKSTTTIKNTLIKTIKEGITNSLKHGNPTEINVTLTLVNSYIKLIIQDNGVGCQNIKPSAGLNGIKKRIEALNGKVAFESKARKGFTIETEIPGGF", "obs.value": "failed"}
{"primary.sequence": "MATISAKLVKELREKTGAGMMDCKKALTETDGDIDKAIDYLREKGIAKAAKKADRIAAEGLVHVETKGNDAVIVEINSETDFVARNEGFQELVKEIANQVLDTKAETVEALMETTLPNGKSVDERIKEAISTIGEKLSVRRFAIRTKTDNDAFGAYLHMGGRIGVLTVVEGSTDEEAARDVAMHIAAINPKYVSSEQVSEEEINHEREVLKQQALNEGKPENIVEKMVEGRLRKYLQEICAVDQDFVKNPDVTVEAFLKTKGGKLVDFVRYEVGEGMEKREENFADEVKGQMK", "obs.value": "failed"}

###

test.protocol: label from the status in PepcDB records

{"primary.sequence": "MTEEFNESMINDIKEGDKVTGEVQQVEDKQVVVHINGGKFNGIIPISQLSTHHIENPSEVVKVGDEVEAYVTKIEFDEENDTGAYILSKRQLETEKSYEYLQEKLDNDEVIEAEVTEVVKGGLVVDVGQRGFVPASLISTDFIEDFSVFDGQTIRIKVEELDPENNRVILSRKAVEQLENDAKKASILDSLNEGDVIDGKVARLTNFGAFINIGGVDGLVHVSELSHGTCSNTRRSCVSRLEHHHHHH", "protein production": "not failed"}
{"primary.sequence": "MEKIEDQFASLHIVRRSSEPKEPTYLLGIDTSKTVQADKGGLVAVLCSNGSIRIYDKETLHLLREFGGSPGLLSGVSFANSCDSVYSASTDGTVKCWDARGASEKPVQLFKGYPSCSFISFDVNCKDHVICAGAEKVDEDALLVFWDARFTSQDLSTRDPLGAYSETHSDDITQVRFHPSNPNLVVSGSTDGLVNVFDLSADKEEDALVATCNSVSSVSCIGWCGKDYKQIYCMTHDEGFCWWDLNHLDTDEPITCLNIQDVREITDVKDGHLDYLIGGLYHEKMDRLFVIGGTNTGKIHLLSCTSAGLTHVTSLHGGHAATVRSFCWNVSEDSLLTGGEDAQLLLWKPGAMEKTFTKKDSLKIASSVQQRVRVHSSDSYKKRKQQ", "protein production": "failed"}
{"primary.sequence": "MTTATSERQKTLLFKAAERQWKEEFAGKETDIRKVDCNIYKGILYQLEIRQVFLDTSLSLKKLSALLETNQTYLSNVVNKYFGCNLKELVNTYRVEYAKELLCSRRCALTELPCSCGFASKSAFYSAFSRIVGVSPLSYQTQERRLEHHHHHH", "protein production": "not failed"}
{"primary.sequence": "MAAFPNLNSGSGLKKLDEHLLTRSYITGYQASKDDITVFTALSKPPTSEFVNVSRWFNHIDALLRISGVSAEGSGVIVEGSSPITEEAVATPPAADSKDTAAEEEDDDDVDLFGEETEEEKKAAEERAASVKASTKKKESGKSSVLMDIKPWDDETDMKKLEEAVRSIQMEGLFWGASKLVPVGYGIKKLHIMCTIVDDLVSIDTMIEEQLTVEPINEYVQSCDIVAFNKI", "protein production": "failed"}
{"primary.sequence": "MNIEIKDTLISEEQLQEKVKELALQIERDFEGEEIVVIAVLKGSFVFAADLIRHIKNDVTIDFISASSYGNQTETTGKVKLLKDIDVNITGKNVIVVEDIIDSGLTLHFLKDHFFMHKPKALKFCTLLDKPERRKVDLTAEYVGFQIPDEFIVGYGIDCAEKYRNLPFIASVVTEESYNLKSR", "protein production": "not failed"}
{"primary.sequence": "GSAQEEQSANEVAVSYSKSLKAAEMDSLQLPVDADGYITIFDGKTFNGWRGYGKDRVPSKWTIEDGCIKFNGSGGGEAQDGDGGDLIFAHKFKNFELEMEWKVSKGGNSGIFYLAQEVTSKDKDGNDVLEPIYISAPEYQVLDNDNHPDAKLGKDNNRQSASLYDMIPAVPQNAKPFGEWNKAKIMVYKGTVVHGQNDENVLEYHLWTKQWTDLLQASKFSQDKWPLAFELLNNCGGENHEGFIGMQDHGDDVWFRNIRVKVLD", "protein production": "not failed"}
{"primary.sequence": "MACEGAPEVRIGRKPVMNYVLAILTTLMEQGTNQVVVKARGRNINRAVDAVEIVRKRFAKNIEIKDIKIDSQEIEVQTPEGQTRTRRVSSIEICLEKAGESA", "protein production": "not failed"}
{"primary.sequence": "MAEEQAATAMETSAVEKQPETTTEAEAPSLTTKRMVVAIDESDSSFYALQWVIDHFSNLLLTTAAAEAESGMLTVIHVQSPFNHFAAFPAGPGGATAVYASSSMIESVKKAQQETSAALLSRALQMCRAKQIRTETLVLEGEAKEMICEAVEKMHVDLLVVGSRGLGKIKRAFLGSVSDYCAHHANCPILIVKPPKEMTK", "protein production": "failed"}
{"primary.sequence": "MNDLVESLIYEVNNMQQNFENVKSQQQDHDFYQTVKPYTEHIDSILNEIKLHREFIIEVPYMNSRKFELLIANIEQLSVECHFKRTSRKLFIEKLKSVQYDLQNILDGVTKEGTDG", "protein production": "not failed"}
{"primary.sequence": "MFSLKMRASSNGNHVSGAERLVKEEQIEEISSELIKRAMNHENGVPDFINLKVEKVTENINYIEHLKIKTINSNSKETSREFAINILKKELENYFLKNGKDTKKIDELIDSAFKIIDAGNMRGAAILDLDGNRLEKSSDRGIRVRNIDTAEELSKKILKDGSLTERTVDAIAIATKVVNCDIIAELCTSDNFSYTTGYVATKDGYFRILNLKDSGQVGGRVFFAESSDIDELYDKLENMPVIVY", "protein production": "failed"}
{"primary.sequence": "MVEPGVAKLTTYASKQATDMGAIYVNSKGDRIVNESNVYTTFRNAILKQADKVAYLVMDERTWKKVYDLLILHDFTPEEIKSFFENKGKRPVFVKGSLESAAEQAGIVVDELVQTVKNYQGYVQDGHDHDFGRDPKYLHQFEGETFYIIEQRLEHHHHHH", "protein production": "failed"}
{"primary.sequence": "MNSQPRHFAPLARLLHWLMALLIIAMLFIGAGMVASVSARHEWLIHLHKPLGIAILLLVLVRLWVRFYTRQPPLPADLPGWQVLAAKASHVLLYALMLSLPLLGWGMISAAGDPVMLGSSLQLPAILPANAQLFAVLRKAHGYLAYLLFFTVLLHLAAALFHGWVRRDGVLQSMLRGRG", "protein production": "not failed"}
{"primary.sequence": "MADGATAVRRGLSGATRLSARFTADAETGTRQGMQALPTSRRLCASLRSLPERALAMLPAVVLALLPVIAMLLALAPGNARVAEDCALRVEGQARHADDQRIMSTVRALAQALGEVAQATPPDEREAKLIRSISPVRYGEGPWDYVILSRGTVHLYTPGMEGAAGVDFANATDARGVPFVQEMQSRAVLGGGFTEWTARRADGSTETRRVYSLVVPGTEYWLGAWTTPDGATTAKNEARNGVLITADHAAHRAALWGIMAGLPAALVLHRLLTASQRLRQEKDRR", "protein production": "failed"}
